- TARGET DESC: GDP-bound KRAS wild-type protein (Homo sapiens)
- Sequence (P01116 whole entry): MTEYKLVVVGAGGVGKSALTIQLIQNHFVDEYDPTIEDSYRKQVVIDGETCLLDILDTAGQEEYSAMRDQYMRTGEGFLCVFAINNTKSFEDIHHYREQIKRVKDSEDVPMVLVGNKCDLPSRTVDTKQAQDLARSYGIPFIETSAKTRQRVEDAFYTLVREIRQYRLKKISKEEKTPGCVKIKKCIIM
- EXPERIMENT DESCRIPTION: Binding to KRAS by surface plasmon resonance (SPR), Single Cycle Kinetics
- CONDITION DETAILS: SPR Single Cycle Kinetics, GDP-bound KRAS wild-type protein, 1:1 binding model; read-out: KRAS KD
pKd: −log10 of the molar value. Where a SMILES comes first, the peptide text is derived from it. Bridges are numbered along the chain shown (N, C = ends). [ ]: non-standard residue; d: D form. The star is where a group is joined. hPhe(3-Cl-4-CF3) = N[C@@H](CCc1ccc(C(F)(F)F)c(Cl)c1)C(=O)O; NPrPhe(4-Me) = CCCN[C@@H](Cc1ccc(C)cc1)C(=O)O; NMeGly(cPent) = CN[C@H](C(=O)O)C1CCCC1; NMeD = CN[C@@H](CC(=O)O)C(=O)O; NMeL = CN[C@@H](CC(C)C)C(=O)O; Morpholide = C1CN(*)CCO1; Ac5c = NC1(C(=O)O)CCCC1; NEtG = CCNCC(=O)O; Sar = CNCC(=O)O
Think of 10 as a floor: if pKd stands on it or above, it is YES; beneath it, NO.

Would you please look over these solved cases?
CC[C@H](C)[C@@H]1NC(=O)[C@H](CC(C)C)N(C)C(=O)C[C@@H](C(=O)N2CCOCC2)N(C)C(=O)[C@H](C2CCCC2)N(C)C(=O)C2(CCC2)NC(=O)[C@@H]2C[C@@H](C(F)(F)F)CN2C(=O)[C@H](CCc2cc(F)c(C(F)(F)F)c(F)c2)NC(=O)CN(C)C(=O)[C@H](Cc2ccc(C(F)(F)F)cc2)N2CCCC[C@@H](C2=O)N(C)C(=O)CN(C)C1=O [PP0809] | YES
CCCN1C(=O)CN(CC)C(=O)CN(C)C(=O)[C@H]([C@@H](C)CC)NC(=O)[C@H](CC(C)C)N(C)C(=O)C[C@@H](C(=O)N2CCOCC2)N(C)C(=O)[C@H](C2CCCC2)N(C)C(=O)C2(CCCC2)NC(=O)[C@@H]2CCCN2C(=O)[C@H](CCc2ccc(C(F)(F)F)c(Cl)c2)NC(=O)CN(C)C(=O)[C@@H]1Cc1ccc(C)cc1 [PP0065] ([NMeL]I[Sar][NEtG][NPrPhe(4-Me)][Sar][hPhe(3-Cl-4-CF3)]P[Ac5c][NMeGly(cPent)][NMeD]-Morpholide; lactam N-11) | NO

Would you kindly look at the next entry?
Request: Quick check, pKd >= 10? CC[C@H](C)[C@@H]1NC(=O)[C@H](CC(C)C)N(C)C(=O)C[C@@H](C(=O)N2CCOCC2)N(C)C(=O)[C@H](C2CCCC2)N(C)C(=O)C2(CCCC2)NC(=O)[C@@H]2CCCN2C(=O)[C@H](CCc2ccc(C(F)(F)F)c(Cl)c2)NC(=O)CN(C)C(=O)[C@H](Cc2ccc(C(F)(F)F)cc2)N2CCCC[C@@H](C2=O)N(C)C(=O)CN(C)C1=O [PP0318]
Response: YES

Source listed as patent US20240158446A1.
